Hey, just so you know, these numbers are from patent US20190359687A1.

experimental.target: T1, human glycophorin A on human red blood cells or red blood cell membranes (human, UniProt P02724 20-150)
T1 construct: whole, on cells; also called hRBC; human RBC membranes
T1 sequence (looked up): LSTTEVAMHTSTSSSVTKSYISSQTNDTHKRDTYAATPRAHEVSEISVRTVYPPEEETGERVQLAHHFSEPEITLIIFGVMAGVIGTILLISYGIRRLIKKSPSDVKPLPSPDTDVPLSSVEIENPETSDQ
assay: SPR (Biacore), Fab over human RBC membranes, 1:1 fit;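 also: human RBC membrane preparations captured on an L1 sensor surface, with antibody passed over them as analyte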
experimental.readout: log10(koff) (log10 of the value in s⁻¹)
Please note: log10 values; quantity koff; unit s⁻¹.

Entry TPP-5841, Hu6C12-24 Fab variant VL: (S24R, A26S, S49A, P54Q, F95Y); VH: (D66G, L70M) (Fab, V domains shown, Built on the parental Fab TPP-4935) VH: EVQLVQSGAEVKKPGASVKVSCKASGYTFTTYTIHWVRQAPGQGLEWIGYINPSSDYTRYNPKFKGRVTMTTDKSTSTAYMELRSLRSDDTAVYYCQTGTRDYWGQGTTVTVSS VL: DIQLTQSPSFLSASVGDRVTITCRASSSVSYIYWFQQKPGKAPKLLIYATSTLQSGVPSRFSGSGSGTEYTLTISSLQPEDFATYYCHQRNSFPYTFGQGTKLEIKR ; log10(koff) = -2.37

Entry TPP-5838, Hu6C12-24 Fab variant VL: (S24R, A26S, S49A, P54Q, F95Y); VH: (I48M, D66G, L70M) (Fab, V domains shown, Built on the parental Fab TPP-4935) VH: EVQLVQSGAEVKKPGASVKVSCKASGYTFTTYTIHWVRQAPGQGLEWMGYINPSSDYTRYNPKFKGRVTMTTDKSTSTAYMELRSLRSDDTAVYYCQTGTRDYWGQGTTVTVSS VL: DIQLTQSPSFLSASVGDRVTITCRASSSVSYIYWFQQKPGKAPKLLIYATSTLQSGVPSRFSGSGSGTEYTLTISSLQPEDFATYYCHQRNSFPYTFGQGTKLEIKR , log10(koff) reported as -2.40

get_value(item= TPP-5839, Hu6C12-24 Fab variant VL: (S24R, A26S, S49A, P54Q, F95Y); VH: (I48M, D66G, L70M, T72R) (Fab, V domains shown, Built on the parental Fab TPP-4935) VH: EVQLVQSGAEVKKPGASVKVSCKASGYTFTTYTIHWVRQAPGQGLEWMGYINPSSDYTRYNPKFKGRVTMTRDKSTSTAYMELRSLRSDDTAVYYCQTGTRDYWGQGTTVTVSS VL: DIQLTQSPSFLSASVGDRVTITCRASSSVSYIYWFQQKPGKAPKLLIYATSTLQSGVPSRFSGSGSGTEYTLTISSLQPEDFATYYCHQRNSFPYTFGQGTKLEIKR , readout=log10(koff)) returns -2.46

The measured log10(koff) associated with TPP-5678, Hu6C12-24 Fab variant VH: (I48M, D66G, L70M, T72R) (Fab, V domains shown, Built on the parental Fab TPP-4935) VH: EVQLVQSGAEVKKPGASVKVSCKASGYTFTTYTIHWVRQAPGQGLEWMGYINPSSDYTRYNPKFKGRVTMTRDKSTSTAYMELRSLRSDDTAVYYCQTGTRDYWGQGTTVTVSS VL: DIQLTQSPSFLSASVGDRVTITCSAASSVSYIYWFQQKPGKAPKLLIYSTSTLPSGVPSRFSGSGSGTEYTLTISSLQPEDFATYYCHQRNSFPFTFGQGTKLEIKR reads -1.39

// log10(koff) value for TPP-5675, Hu6C12-24 Fab variant VH: (I48M, L70M, T72R) (Fab, V domains shown, Built on the parental Fab TPP-4935) VH: EVQLVQSGAEVKKPGASVKVSCKASGYTFTTYTIHWVRQAPGQGLEWMGYINPSSDYTRYNPKFKDRVTMTRDKSTSTAYMELRSLRSDDTAVYYCQTGTRDYWGQGTTVTVSS VL: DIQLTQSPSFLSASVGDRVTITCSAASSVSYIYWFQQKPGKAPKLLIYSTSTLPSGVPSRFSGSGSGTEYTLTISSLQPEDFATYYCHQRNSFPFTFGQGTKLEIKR : -1.44
